# Dmax per entry
# TARGET ENTITY: Cbl-B (Homo sapiens, UniProt Q13191)
# Construct: MSD-Based Assay for Degradation of Cbl-B in THP-1 Cells; endogenous in cells; host or cells: THP-1 (title) / Jurkat (protocol text)
# Sequence (Q13191 whole entry): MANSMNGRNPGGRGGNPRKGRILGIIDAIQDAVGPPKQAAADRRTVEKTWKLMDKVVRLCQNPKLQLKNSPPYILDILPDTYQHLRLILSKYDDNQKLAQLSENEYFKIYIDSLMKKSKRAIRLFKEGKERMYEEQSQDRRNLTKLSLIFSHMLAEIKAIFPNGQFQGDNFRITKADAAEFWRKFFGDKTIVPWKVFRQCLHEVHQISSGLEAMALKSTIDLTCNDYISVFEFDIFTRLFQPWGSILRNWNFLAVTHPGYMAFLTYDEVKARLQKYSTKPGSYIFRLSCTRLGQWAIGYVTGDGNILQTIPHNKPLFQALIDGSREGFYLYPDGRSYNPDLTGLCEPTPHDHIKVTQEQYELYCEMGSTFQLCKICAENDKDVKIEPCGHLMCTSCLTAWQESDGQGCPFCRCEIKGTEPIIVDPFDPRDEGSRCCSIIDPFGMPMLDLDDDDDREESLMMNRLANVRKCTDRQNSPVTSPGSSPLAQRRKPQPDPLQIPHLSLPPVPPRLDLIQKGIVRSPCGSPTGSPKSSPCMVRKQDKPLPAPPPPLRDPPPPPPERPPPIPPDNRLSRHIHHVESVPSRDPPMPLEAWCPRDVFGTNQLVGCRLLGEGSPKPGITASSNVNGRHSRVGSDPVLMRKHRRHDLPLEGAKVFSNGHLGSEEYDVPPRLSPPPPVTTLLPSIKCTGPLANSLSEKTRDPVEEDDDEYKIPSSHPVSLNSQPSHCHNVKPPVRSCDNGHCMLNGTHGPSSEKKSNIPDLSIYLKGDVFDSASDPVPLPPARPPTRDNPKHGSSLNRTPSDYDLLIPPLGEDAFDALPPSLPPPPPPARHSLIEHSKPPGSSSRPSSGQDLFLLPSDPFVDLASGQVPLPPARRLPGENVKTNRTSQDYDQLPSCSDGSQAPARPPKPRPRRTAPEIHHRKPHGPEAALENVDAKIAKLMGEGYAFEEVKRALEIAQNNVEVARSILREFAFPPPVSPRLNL
# PROTOCOL DESCRIPTION: MSD-based assay for degradation of Cbl-B in THP-1 cells
# Type: cell-based
# CONDITION DETAILS: Cbl-B degradation, Jurkat cells seeded (heading: THP-1 cells), 24 hours incubation, MSD readout; read-out: Dmax

Q: Please report Dmax with Cbl-B (Homo sapiens, UniProt Q13191) for item Cn1cnnc1CC1(c2cccc(-n3cc4c(C(F)(F)F)cc(CN5CCC(OCCN6CCC(CN7CCCN(c8ccc9c(c8)CN(C8CCC(=O)NC8=O)C9=O)CC7)CC6)CC5)cn4c3=O)c2)COC1 (centres unmarked) [Compound 25] .
Ans: 30 to 50%

Q: Please report Dmax with Cbl-B (Homo sapiens, UniProt Q13191) for item Cn1cnnc1[C@@H](c1cccc(-n2cc3c(C(F)(F)F)cc(CN4CCN(CCN5CCC(CN6CCN(c7ccc8c(c7)CN([C@H]7CCC(=O)NC7=O)C8=O)CC6)CC5)CC4)cn3c2=O)c1)C1CCC1 (single isomer, unassigned) [Compound 64] .
Ans: > 70%

Q: Please report Dmax with Cbl-B (Homo sapiens, UniProt Q13191) for item Cn1cnnc1[C@@H](c1cccc(-n2cc3c(C(F)(F)F)cc(CN4CCC(C5CCN(C(=O)c6ccc(N7CCN(c8ccc9c(c8)CN([C@H]8CCC(=O)NC8=O)C9=O)CC7)cc6)CC5)CC4)cn3c2=O)c1)C1CCC1 (single isomer, unassigned) [Compound 162] .
Ans: > 70%

Q: Please report Dmax with Cbl-B (Homo sapiens, UniProt Q13191) for item Cn1cnnc1CC1(c2cccc(-n3cc4c(C(F)(F)F)cc(CN5CCC(OCc6ccc(CN7CCN(c8ccc9c(c8)CN([C@@H]8CCC(=O)NC8=O)C9=O)CC7)cc6)CC5)cn4c3=O)c2)COC1 (single isomer, unassigned) [Compound 93] .
Ans: 50 to 70%

Q: Please report Dmax with Cbl-B (Homo sapiens, UniProt Q13191) for item Cn1cnnc1[C@@H](c1cccc(-n2cc3c(C(F)(F)F)cc(CN4CCC(OCc5cccc(C(=O)N6CCN(c7ccc8c(c7)CN([C@@H]7CCC(=O)NC7=O)C8=O)CC6)c5)CC4)cn3c2=O)c1)C1CCC1 (single isomer, unassigned) [Compound 153] .
Ans: < 30%

Q: Please report Dmax with Cbl-B (Homo sapiens, UniProt Q13191) for item Cn1cnnc1[C@@H](c1cccc(-n2cc3c(C(F)(F)F)cc(CN4CCN(CCc5ccc(N6CCN(c7ccc8c(c7)CN([C@H]7CCC(=O)NC7=O)C8=O)CC6)cc5)CC4)cn3c2=O)c1)C1CCC1 (single isomer, unassigned) [Compound 126] .
Ans: > 70%

Q: Please report Dmax with Cbl-B (Homo sapiens, UniProt Q13191) for item Cn1cnnc1CC1(c2cccc(-n3cc4c(C(F)(F)F)cc(CN5CCC(OCCOCc6ccc(CN7CCN(c8ccc9c(c8)CN([C@@H]8CCC(=O)NC8=O)C9=O)CC7)cc6)CC5)cn4c3=O)c2)COC1 (single isomer, unassigned) [Compound 219] .
Ans: 50 to 70%

Q: Please report Dmax with Cbl-B (Homo sapiens, UniProt Q13191) for item Cn1cnnc1[C@@H](c1cccc(-n2cc3c(C(F)(F)F)cc(CN4CCC(OCCc5ccc(CN6CCN(c7ccc8c(c7)CN([C@H]7CCC(=O)NC7=O)C8=O)CC6)cc5)CC4)cn3c2=O)c1)C1CCC1 [Compound 116] .
Ans: 50 to 70%
